The entries below are paired with their reported % Inhibition.
# System: P. falciparum stage V gametocytes
# Parameters: BacTiter-Glo ATP luminescence viability of purified stage V gametocytes in 384-well plates, per cent inhibition versus DMSO
# TEST_SETTINGS: 48 h, 5 µM; inhibitor
Hit rate of the full screen: of about 13,000 compounds, about 3,200 (25%) showed an effect of 50% or more. This is one part of the list.
QUANTITY_NAME: % Inhibition

INSERT INTO assay_data (compound, reported) VALUES
  ('Cc1ccccc1C1CCN(C2CCC(NC(=O)c3ccc(-c4ccccc4)s3)CC2)CC1 (stereo not drawn)', '-48.7%'),
  ('Cc1c(Cc2ccccc2Cl)cnc2nc(N)nc(N)c12', '7.074%'),
  ('CN1CCc2ccc(NC(=O)Nc3cccc(C(=O)c4ccccc4)c3)cc2C1', '-22.18%'),
  ('Cc1ccccc1C1CCN(C2CCC(NC(=O)c3cc4cc(Cl)ccc4o3)CC2)CC1 (stereo not drawn)', '-69.82%'),
  ('O=C(c1ccc([N+](=O)[O-])o1)N1CCC(c2cn(Cc3cccc(F)c3)c3ccccc23)CC1', '44.33%'),
  ('Cc1cccc(CC(N)=NCCCCCCN=C(N)Cc2cccc(C)c2)c1', '-14.49%'),
  ('Cc1ccc(CON2C(N)=NC(N)=NC2(C)C)cc1C', '9.174%'),
  ('O=c1cc(NCCCNCc2ccc(C(F)(F)F)c(F)c2)[nH]c2ccccc12', '-42.45%'),
  ('CCc1c(C(=O)NC2CCC(N3CCC(c4ccccc4C)CC3)CC2)[nH]c2ccc(OC)cc12 (stereo not drawn)', '-38.07%'),
  ('Cc1ccccc1C1CCN(C2CCC(NC(=O)c3ccc(-c4cccc(C(F)(F)F)c4)o3)CC2)CC1 (stereo not drawn)', '57.44%'),
  ('CC1Cc2ccccc2N1CC(=O)Nc1cc(C(F)(F)F)ccc1-n1cncn1 (stereo not drawn)', '-73.33%'),
  ('Cc1ccc(/C=C/C(=O)NC2CCC(N3CCC(c4ccccc4C)CC3)CC2)cc1F (stereo not drawn)', '-74.34%'),
  ('Cc1ccc2c(c1)c(C1CCN(C(=O)c3ccc([N+](=O)[O-])o3)CC1)cn2C', '93.47%'),
  ('C=CCOC(=O)N1CCC(CNCc2cccc(-c3ccc(-c4nc5ccccc5[nH]4)s3)c2)C1.O=C(O)C(F)(F)F (stereo not drawn)', '38.09%'),
  ('Cc1cc(C(=O)N(Cc2ccc(-c3ccc(CNCCc4ccc(S(C)(=O)=O)cc4)cn3)cc2)C(C)CN(C)C)ccc1[N+](=O)[O-] (stereo not drawn)', '51.26%'),
  ('Cc1ccc2c(-c3ccc([N+](=O)[O-])o3)cc(C)nc2c1', '5.138%'),
  ('CNC(=O)C(C)N(c1ccc(Cl)cc1)c1nc(C(C)(C)C)cs1 (stereo not drawn)', '52.18%'),
  ('O=C(NCc1cccc2ccccc12)C1CCCN(C(=O)c2ccc(O)c(-c3ccc(Cl)c(Cl)c3)c2)C1 (stereo not drawn)', '15.24%'),
  ('CNC(=O)c1cc(NCCCNCc2ccc(Cl)c(C(F)(F)F)c2)nc2ccccc12', '72.56%'),
  ('CC1(C)N=C(N)N=C(N)N1CCc1ccccc1', '9.542%'),
  ('NC(N)=NN=Cc1cc([N+](=O)[O-])ccc1Sc1ccccc1CO', '34.86%'),
  ('CCCCCCc1cc(O)c2c3c(c(=O)oc2c1)CCN(C)C3', '9.848%'),
  ('Cc1ccccc1C1CCN(C2CCC(NC(=O)c3cncc(-c4ccccc4)c3)CC2)CC1 (stereo not drawn)', '-71.64%'),
  ('CC(C)(C)n1nnnc1C(c1cccnc1)N(Cc1ccccc1)Cc1ccc(Cl)cc1 (stereo not drawn)', '11.45%'),
  ('CC(C)Sc1nncc(-c2cnnc(SC(C)C)n2)n1', '3.174%'),
  ('Cc1cc(-c2cc(-c3ccc(OCCN(C)C)cc3)[nH]c2-c2ccc3c(c2)CCC3=NO)ccn1', '25.92%'),
  ('O=C(CCCCCNC(=O)c1ccc(O)c(-c2ccc(Cl)c(Cl)c2)c1)NCc1cccc(C(F)(F)F)c1', '18.4%'),
  ('CN=C(NC)c1cccc(NC(=O)C=Cc2ccc(C=CC(=O)Nc3cccc(C(=NC)NC)c3)cc2)c1', '18.83%'),
  ('Cc1cnc(CN(Cc2ccc(-c3ccc(CNCCc4ccc(S(C)(=O)=O)cc4)cn3)cc2)C(=O)c2nn(-c3ccccc3)nc2C)cn1', '-18.48%'),
  ('FC(F)(F)c1ccc(CNCC2CCN(Cc3ccc4c(c3)OCO4)CC2)cc1', '9.475%'),
  ('COc1cc(-c2nc(-c3ccccc3)c(-c3ccc([N+](=O)[O-])cc3)[nH]2)cc(OC)c1O', '-60.07%'),
  ('CCCOc1c(CCNCCCCNCCc2ccc3ccccc3c2OCCC)ccc2ccccc12', '113.4%'),
  ('CCCOc1ccc(CCNCCCCNCCc2ccc(OCCC)c3ccccc23)c2ccccc12', '124.7%');
